Measured values drawn from patent US20160221965A1 for this set.

The molecules listed here are annotated with their log10 of IC50.
target: murine CCR2 (Mus musculus); construct: host or cells: U2OS β-arrestin cell line; assay: Functional β-arrestin recruiting test with human MCP-1 (B-2a); assay type: cell-based; conditions: U2OS β-arrestin cell line transfected with murine CCR2; agonist human MCP-1 at EC50 (about 3 nM)
Sequence (P51683 whole entry): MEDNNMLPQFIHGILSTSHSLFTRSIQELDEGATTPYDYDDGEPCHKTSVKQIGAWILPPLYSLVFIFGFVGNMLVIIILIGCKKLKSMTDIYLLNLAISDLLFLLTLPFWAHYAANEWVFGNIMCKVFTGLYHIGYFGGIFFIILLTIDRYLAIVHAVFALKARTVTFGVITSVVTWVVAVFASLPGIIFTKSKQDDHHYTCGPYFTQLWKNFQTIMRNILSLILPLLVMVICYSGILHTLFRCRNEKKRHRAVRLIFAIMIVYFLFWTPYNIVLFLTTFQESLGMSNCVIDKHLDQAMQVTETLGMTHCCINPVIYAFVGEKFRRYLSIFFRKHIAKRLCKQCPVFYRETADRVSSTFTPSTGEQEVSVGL
ASSAY_READOUT: log10 of IC50 (log10 of the value in nM)

MOLECULE	TARGET	log10 of IC50
NC(=O)Cc1nc(C(F)(F)F)c(Cc2cc(F)cc(C(F)(F)F)c2)c(=O)[nH]1 [Example 42]	murine CCR2 (Mus musculus)	3.45
CCc1nc(C(F)(F)F)c(Cc2ccc(Cl)c(C(F)(F)F)c2)c(=O)[nH]1 [Example 26]	murine CCR2 (Mus musculus)	2.38
O=c1[nH]c(CO)nc(C(F)(F)F)c1Oc1ccc(F)c(F)c1 [Example 53]	murine CCR2 (Mus musculus)	2.79
CN(C)c1nc(C(F)(F)F)c(Oc2ccc(Cl)c(Cl)c2)c(=O)[nH]1 [Example 67]	murine CCR2 (Mus musculus)	3.00
Nc1nc(C(F)(F)F)c(Sc2ccc(Cl)c(C(F)(F)F)c2)c(=O)[nH]1 [Example 17]	murine CCR2 (Mus musculus)	2.20
Nc1nc(C(F)(F)F)c(Cc2ccc(Cl)c(F)c2)c(=O)[nH]1 [Example 13]	murine CCR2 (Mus musculus)	2.52
O=c1[nH]c(CO)nc(C(F)(F)F)c1Oc1cccc(Cl)c1 [Example 54]	murine CCR2 (Mus musculus)	2.15
Nc1nc(C(F)(F)F)c(Oc2ccc(Cl)c(F)c2)c(=O)[nH]1 [Example 5]	murine CCR2 (Mus musculus)	2.32
CCc1nc(C(F)(F)F)c(Cc2ccc(F)c(Cl)c2)c(=O)[nH]1 [Example 28]	murine CCR2 (Mus musculus)	2.46
O=c1[nH]c(C2CC2)nc(C(F)(F)F)c1Cc1ccc(Cl)c(C(F)(F)F)c1 [Example 27]	murine CCR2 (Mus musculus)	2.56
Nc1nc(C(F)(F)F)c(Sc2ccc(Cl)cc2)c(=O)[nH]1 [Example 16]	murine CCR2 (Mus musculus)	2.81
Cc1ccc(Cc2c(C(F)(F)F)nc(CC(N)=O)[nH]c2=O)cc1Cl [Example 47]	murine CCR2 (Mus musculus)	2.92
NC(=O)Cc1nc(C(F)(F)F)c(Cc2cccc(C(F)(F)F)c2)c(=O)[nH]1 [Example 41]	murine CCR2 (Mus musculus)	3.30
NC(=O)Cc1nc(C(F)(F)F)c(Oc2ccc(F)c(F)c2)c(=O)[nH]1 [Example 37]	murine CCR2 (Mus musculus)	3.58
NC(=O)Cc1nc(C(F)(F)F)c(Cc2ccc(F)c(Cl)c2)c(=O)[nH]1 [Example 44]	murine CCR2 (Mus musculus)	2.62
O=c1[nH]c(C2CC2)nc(C(F)(F)F)c1Cc1ccc(C(F)(F)F)c(Cl)c1 [Example 24]	murine CCR2 (Mus musculus)	3.28
NC(=O)Cc1nc(C(F)(F)F)c(Oc2ccc(Cl)c(Cl)c2)c(=O)[nH]1 [Example 46]	murine CCR2 (Mus musculus)	2.64
NC(=O)Cc1nc(C(F)(F)F)c(Cc2ccc(C(F)(F)F)c(Cl)c2)c(=O)[nH]1 [Example 35]	murine CCR2 (Mus musculus)	3.57
